The origin of these recorded values is patent US8586747B2.

# System: AMP-activated protein kinase (AMPK)
# EXPERIMENT NOTES: ADP Quest assay for AMPK activators
# Format: biochemical
# Parameters: key: fold AMPK activation with vs without activator at 30 µM
# MEASUREMENT PARAMETERS: fold of AMPK activation to phosphorylate SAMS peptide without and with an activator at the concentration of 30 µM
Assignment: determine reported E30 for the given molecules.
One number for each entry.

MOLECULE	E30
CC(C)(Nc1cccc(C2Nc3ccc(C(=O)O)cc3CC2(C)C)c1)C(=O)O (stereo not shown) [Example 15]	3.59

Each molecule below has a reported value. Please supply its E30.
1. CC1(C)Cc2cc(C(=O)NS(=O)(=O)C3CC3)ccc2NC1c1cccc(-c2ccc(S(C)(=O)=O)cc2)c1 (stereo not shown) [Example 161]
2. CC1(C)Cc2c(C(=O)O)ccc(Cl)c2NC1c1cccc(N2CCOCC2)c1 (stereo not shown) [Example 111]
3. CC1(C)Cc2cc(C(=O)O)ccc2NC1c1cccc(C(=O)NC2CCOC2)c1 (stereo not shown) [Example 167]

Resp:
1. 1.21
2. 1.24
3. 1.4

---

Hi there, I'd appreciate the recorded E30 for every entry that follows.
# System: AMP-activated protein kinase (AMPK)
# EXPERIMENT NOTES: ADP Quest assay for AMPK activators
# Type: biochemical
# Design: key: fold AMPK activation with vs without activator at 30 µM
# MEASUREMENT PARAMETERS: fold of AMPK activation to phosphorylate SAMS peptide without and with an activator at the concentration of 30 µM
Numbers only.

These solved cases illustrate the format of a correct answer.
MOLECULE	TESTED ON	VAL
CC1(C)Cc2cc(Cl)cc(C(=O)NS(=O)(=O)C3CC3)c2NC1c1cccc(N2CCOCC2)c1 (centres unmarked)	AMP-activated protein kinase (AMPK)	1.4
CC1(C)Cc2cc(C(=O)N3CCC[C@H]3C(=O)O)ccc2NC1c1cccc(N2CCOCC2)c1 (some centres unmarked)	AMP-activated protein kinase (AMPK)	1.3
CC1(C)Cc2cc(C(=O)O)ccc2NC1c1ccc(NC(=O)c2ccccn2)cc1 (centres unmarked)	AMP-activated protein kinase (AMPK)	1.21

For every item below, please supply its E30.
1. CC1(C)Cc2cc(C(=O)NS(C)(=O)=O)ccc2NC1c1cccc(N2CC(F)C2)c1 (centres unmarked)
2. Cc1ccc(F)cc1C1Nc2ccc(C(=O)NS(=O)(=O)C3CC3)cc2CC1(C)C (centres unmarked)
3. CC1(C)Cc2cc(C(=O)O)ccc2NC1c1ccccc1NC(=O)C1CCC1 (centres unmarked)
4. CC1(C)Cc2c(C(=O)NS(=O)(=O)C3CC3)ccc(F)c2NC1c1cccc(N2CCOCC2)c1 (centres unmarked)
5. CN1CCC(NS(=O)(=O)c2cccc(C3Nc4ccc(C(=O)O)cc4CC3(C)C)c2)C1 (centres unmarked)

Resp:
1. 1.24
2. 1.2
3. 1.36
4. 1.22
5. 1.33

---

I'd be grateful if you could share measured E30 for these entries.
# Tested on: AMP-activated protein kinase (AMPK)
# EXPERIMENT NOTES: ADP Quest assay for AMPK activators
# Assay type: biochemical
# Set-up: key: fold AMPK activation with vs without activator at 30 µM
# MEASUREMENT PARAMETERS: fold of AMPK activation to phosphorylate SAMS peptide without and with an activator at the concentration of 30 µM
One number for each entry.

COMPOUND	E30
CC(C)(C)c1ccc(-c2cccc(C3Nc4ccc(C(=O)NS(C)(=O)=O)cc4CC3(C)C)c2)cc1 (centres unmarked) [Example 83]	1.35

Please state, for each entry, its recorded E30.
1. CC1(C)Cc2cc(C(=O)NS(C)(=O)=O)cc(Cl)c2NC1c1cccc(N2CCOCC2)c1 (centres unmarked) [Example 115]
2. CC1(C)Cc2cc(C(=O)O)ccc2NC1c1cccc(NC(=O)c2ccccc2)c1 (centres unmarked) [Example 12]
3. CC1(C)Cc2cc(C(=O)O)ccc2NC1c1cccc(C(=O)NS(=O)(=O)C2CC2)c1 (centres unmarked) [Example 176]
4. CC1(C)Cc2c(ccc(F)c2C(=O)O)NC1c1cccc(N2CCOCC2)c1 (centres unmarked) [Example 121]

Resp:
1: 1.2; 2: 1.22; 3: 1.44; 4: 1.42
